Test system: PC-3 [JPC-3]
assay-summary: relative viability (nuclei count vs DMSO), 5 days (fraction); higher = more cells survive
settings: first compound 0.4 µM
Define the label as Satisfied when relative viability is strictly less than 0.8 and as Not satisfied in all remaining cases.

# count of solved cases: 6
# molecule, label
measured = [
    ("COc1cc(N2CCC(C(N)=O)CC2)ccc1Nc1nc(N)c(Cl)c(Nc2ccccc2S(=O)(=O)C(C)C)n1 [HG-5-88-01] + Nc1nc2[nH]cc(CCc3ccc(C(=O)N[C@@H](CCC(=O)O)C(=O)O)cc3)c2c(=O)[nH]1 [Pemetrexed] (partner 0.2 µM)", "Not satisfied"),
    ("C[C@@H]1CN(CC(=O)Nc2ccc3c(c2)Cc2cccc(-c4cc(=O)cc(N5CCOCC5)o4)c2S3)C[C@H](C)O1 + Nc1ncn([C@H]2C[C@H](O)[C@@H](CO)O2)c(=O)n1 [Decitabine] (partner 2 µM)", "Not satisfied"),
    ("Clc1ccc(Nc2nnc(Cc3ccncc3)c3ccccc23)cc1 [Vatalanib] + CCNC(=O)c1noc(-c2cc(C(C)C)c(O)cc2O)c1-c1ccc(CN2CCOCC2)cc1 [Luminespib] (partner 0.01 µM)", "Satisfied"),
    ("COc1cc(N2CCC(C(N)=O)CC2)ccc1Nc1nc(N)c(Cl)c(Nc2ccccc2S(=O)(=O)C(C)C)n1 [HG-5-88-01] + CC1(C)CCC(c2ccc(Cl)cc2)=C(CN2CCN(c3ccc(C(=O)NS(=O)(=O)c4ccc(N[C@H](CCN5CCOCC5)CSc5ccccc5)c(S(=O)(=O)C(F)(F)F)c4)cc3)CC2)C1 [Navitoclax] (partner 0.5 µM)", "Not satisfied"),
    ("Clc1ccc(Nc2nnc(Cc3ccncc3)c3ccccc23)cc1 [Vatalanib] + CC(=O)Nc1cccc(-n2c(=O)n(C3CC3)c(=O)c3c(Nc4ccc(I)cc4F)n(C)c(=O)c(C)c32)c1 [Trametinib] (partner 0.02 µM)", "Satisfied"),
    ("COc1cc(N2CCC(C(N)=O)CC2)ccc1Nc1nc(N)c(Cl)c(Nc2ccccc2S(=O)(=O)C(C)C)n1 [HG-5-88-01] + CC(=O)c1c(C)c2cnc(Nc3ccc(N4CCNCC4)cn3)nc2n(C2CCCC2)c1=O [Palbociclib] (partner 0.5 µM)", "Satisfied"),
]

relative viability under 0.8? Item: C[C@@H]1CN(CC(=O)Nc2ccc3c(c2)Cc2cccc(-c4cc(=O)cc(N5CCOCC5)o4)c2S3)C[C@H](C)O1 + C[C@@H](Oc1cc(-c2cnn(C3CCNCC3)c2)cnc1N)c1c(Cl)ccc(F)c1Cl [Crizotinib] (partner 1 µM)
Not satisfied
